Test system: NCI/ADR-RES
Assay: NCI tumour cell line growth inhibition, 48 h
The source made the active and inactive calls. Rule as the data show it: active = GI50 up to about 1.1 µM and inactive = higher.
Hi! Could you answer with just one of these? true = active, false = inactive

Incoming: Just curious, what result did "CC(C)=CCN(N=O)c1ncnc2[nH]cnc12" get here?
Outgoing: false

Incoming: Just curious, what result did "CCOC(=O)c1c(SCCN2CCCC2)n(-c2ccccc2)c(=S)n(-c2ccccc2)c1=O" get here?
Outgoing: false

Incoming: Just curious, what result did "O=C1NCCN1/N=C/c1c(Cl)n(-c2ccccc2)c2ccccc12" get here?
Outgoing: false

Incoming: Just curious, what result did "Cc1ccc2c(O)cc(-c3ccc(C)s3)nc2n1" get here?
Outgoing: true

Incoming: Just curious, what result did "COC(=O)c1cc2c(cc1CC1Cc3cc4c(cc3C1)CCC4)CCC2" get here?
Outgoing: false

Incoming: Just curious, what result did "O=[N+]([O-])c1cccc([N+](=O)[O-])c1Cl" get here?
Outgoing: false
